system: 242566-281-R-J2-PDC complex spheroid viability; test: Anticancer human tumor 242566-281-R-J2-PDC patient-derived pancreatic carcinoma cell line growth inhibition [CLK]; settings: second compound 3.16 µM; first compound 0.316 µM; stronger effect = lower value
Listed compounds paired with reported viability, T/C
Response body: numeric value in %, unit text excluded.

C#Cc1c(F)ccc2cc(O)cc(-c3ncc4c(N5CC6CCC(C5)N6)nc(OCC56CCCN5CC(F)C6)nc4c3F)c12 (stereo not given) + CNC(=O)c1ccc(Nc2nc(OC3CCCC3)c3c(-c4ccc5nc(C)oc5c4)c[nH]c3n2)c(OC)c1	15.9
C=C(F)C(=O)N1CCN(c2nc(OCC3CCCN3C)nc3c2CCN(c2cccc4cccc(Cl)c24)C3)CC1CC#N (stereo not given) + CNC(=O)c1ccc(Nc2nc(OC3CCCC3)c3c(-c4ccc5nc(C)oc5c4)c[nH]c3n2)c(OC)c1	50.8
CC(CO)NC(=O)c1cc(-c2ccc(Cl)cc2)nn(-c2cnn(C)c2)c1=O (stereo not given) + CNC(=O)c1ccc(Nc2nc(OC3CCCC3)c3c(-c4ccc5nc(C)oc5c4)c[nH]c3n2)c(OC)c1	59.1
COC1C=CCC(C)C(C)S(=O)(=O)NC(=O)c2ccc3c(c2)N(CC2CCC21)CC1(CCCc2cc(Cl)ccc21)CO3 (stereo not given) + CN1CCN(c2cc(C(=O)Nc3cc4cc(-c5cnn(C)c5)ccc4cn3)ccn2)CC1	6.63

-- ask What does the record list as viability, T/C for Nc1ccccc1NC(=O)c1ccc(CNC(=O)OCc2cccnc2)cc1 + CNC(=O)c1ccc(Nc2nc(OC3CCCC3)c3c(-c4ccc5nc(C)oc5c4)c[nH]c3n2)c(OC)c1 ?
-- reply 52.5

###

Listed compounds paired with reported pIC50
system: 242566-281-R-J2-PDC complex spheroid viability; test: Anticancer human tumor 242566-281-R-J2-PDC cell line growth inhibition [CLK]; conditions: curve of compound;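 note: spheroids exposed to compounds for 7 days before readout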
pIC50: −log10 of the molar value.

Look over these answered cases.
CC(CO)NC(=O)c1cc(-c2ccc(Cl)cc2)nn(-c2cnn(C)c2)c1=O (stereo not given)	< 5.00
Cn1ncnc1[C@H]1c2n[nH]c(=O)c3cc(F)cc(c23)N[C@@H]1c1ccc(F)cc1	< 7.00
CCN1CCN(Cc2ccc(Nc3ncc(F)c(-c4cc(F)c5nc(C)n(C(C)C)c5c4)n3)nc2)CC1	< 6.00
C=CC(=O)Nc1cc(Nc2nccc(-c3cn(C)c4ccccc34)n2)c(OC)cc1N(C)CCN(C)C	< 6.52

Alright, here's another compound for you.
-- ask What does the record list as pIC50 for O=c1[nH]cc(F)c(=O)[nH]1 ?
-- reply < 5.00

###

Listed compounds paired with reported viability, T/C
tested on: 242566-281-R-J2-PDC complex spheroid viability; assay: Anticancer human tumor 242566-281-R-J2-PDC cell line growth inhibition [CLK]; settings: second compound 1 µM; first compound 1 µM; stronger effect = lower value;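 note: spheroids exposed to compounds for 7 days before readout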;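 for viability, T/C: 100% = DMSO vehicle control wells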
Response body: numeric value in %, unit text excluded.

-- ask Please tell me: viability, T/C of O=C(c1cc(Cc2n[nH]c(=O)c3ccccc23)ccc1F)N1CCN(C(=O)C2CC2)CC1 + CNC(=O)c1ccc(Nc2nc(OC3CCCC3)c3c(-c4ccc5nc(C)oc5c4)c[nH]c3n2)c(OC)c1 , system 242566-281-R-J2-PDC complex spheroid viability?
-- reply 69.8

-- ask Please answer likewise for CC(Nc1ccc2c(c1)OCCn1cc(N3C(=O)OCC3C(F)F)nc1-2)C(N)=O (stereo not drawn) + CNC(=O)c1ccc(Nc2nc(OC3CCCC3)c3c(-c4ccc5nc(C)oc5c4)c[nH]c3n2)c(OC)c1
-- reply 26.8

-- ask Please answer likewise for COc1c(OCCCN2CCOCC2)ccc2c3n(c(=NC(=O)c4cnc(N)nc4)nc12)CCN3 + CNC(=O)c1ccc(Nc2nc(OC3CCCC3)c3c(-c4ccc5nc(C)oc5c4)c[nH]c3n2)c(OC)c1
-- reply 10.9

###

tested on: 242566-281-R-J2-PDC complex spheroid viability; test: Anticancer human tumor 242566-281-R-J2-PDC cell line growth inhibition [CLK]; details: second compound 1 µM; first compound 1 µM; active means viability on the fitted dose curve at most 10% of control; inactive means the rest;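 note: spheroids exposed to compounds for 7 days before readout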
Use one of these outcomes when replying: TRUE (active), FALSE (inactive)

C=CC(=O)N1CCN(c2nc(=O)n(-c3c(C)ccnc3C(C)C)c3nc(-c4c(O)cccc4F)c(F)cc23)C(C)C1 (stereo not given) + CN1CCN(c2cc(C(=O)Nc3cc4cc(-c5cnn(C)c5)ccc4cn3)ccn2)CC1	TRUE
CC1COCCN1c1cc(C2(S(C)(=N)=O)CC2)nc(-c2ccnc3[nH]ccc23)n1 (stereo not given) + CN1CCN(c2cc(C(=O)Nc3cc4cc(-c5cnn(C)c5)ccc4cn3)ccn2)CC1	TRUE
COc1cccc2c1C(=O)c1c(O)c3c(c(O)c1C2=O)CC(O)(C(=O)CO)CC3OC1CC(N)C(O)C(C)O1 (stereo not given) + CNC(=O)c1ccc(Nc2nc(OC3CCCC3)c3c(-c4ccc5nc(C)oc5c4)c[nH]c3n2)c(OC)c1	TRUE
CC(=O)O[C@H]1C(=O)[C@@]2(C)[C@H]([C@H](OC(=O)c3ccccc3)[C@]3(O)C[C@H](OC(=O)[C@H](O)[C@@H](NC(=O)c4ccccc4)c4ccccc4)C(C)=C1C3(C)C)[C@]1(OC(C)=O)CO[C@@H]1C[C@@H]2O + CNC(=O)c1ccc(Nc2nc(OC3CCCC3)c3c(-c4ccc5nc(C)oc5c4)c[nH]c3n2)c(OC)c1	FALSE

As a next step, examine the molecule that follows.
-- ask Tell me the recorded outcome of this test for Nc1ccccc1NC(=O)c1ccc(CNC(=O)OCc2cccnc2)cc1 + CNC(=O)c1ccc(Nc2nc(OC3CCCC3)c3c(-c4ccc5nc(C)oc5c4)c[nH]c3n2)c(OC)c1 .
-- reply FALSE

###

test system: 242566-281-R-J2-PDC complex spheroid viability; experiment: Anticancer human tumor 242566-281-R-J2-PDC cell line growth inhibition [CLK]; conditions: second compound 1 µM; first compound 3.16 µM; stronger effect = lower value;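 note: spheroids exposed to compounds for 7 days before readout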;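 for viability, T/C: 100% = DMSO vehicle control wells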
Labelling: viability, T/C reported below 40% becomes class 1; at or above becomes class 0.

Below, 3 compounds whose answers are already recorded.
COC1C=CCC(C)C(C)S(=O)(=O)NC(=O)c2ccc3c(c2)N(CC2CCC21)CC1(CCCc2cc(Cl)ccc21)CO3 (stereo not given) + CNC(=O)c1ccc(Nc2nc(OC3CCCC3)c3c(-c4ccc5nc(C)oc5c4)c[nH]c3n2)c(OC)c1	class 1
O=c1[nH]cc(F)c(=O)[nH]1 + CN1CCN(c2cc(C(=O)Nc3cc4cc(-c5cnn(C)c5)ccc4cn3)ccn2)CC1	class 1
C#Cc1c(F)ccc2cc(O)cc(-c3ncc4c(N5CC6CCC(C5)N6)nc(OCC56CCCN5CC(F)C6)nc4c3F)c12 (stereo not given) + CN1CCN(c2cc(C(=O)Nc3cc4cc(-c5cnn(C)c5)ccc4cn3)ccn2)CC1	class 1

-- ask Here's an entry: O=c1[nH]cc(F)c(=O)[nH]1 + CNC(=O)c1ccc(Nc2nc(OC3CCCC3)c3c(-c4ccc5nc(C)oc5c4)c[nH]c3n2)c(OC)c1 . Is its viability, T/C below 40%?
-- reply class 0

-- ask Please answer likewise for CC(CO)NC(=O)c1cc(-c2ccc(Cl)cc2)nn(-c2cnn(C)c2)c1=O (stereo not given) + CNC(=O)c1ccc(Nc2nc(OC3CCCC3)c3c(-c4ccc5nc(C)oc5c4)c[nH]c3n2)c(OC)c1
-- reply class 0

-- ask Please answer likewise for O=C(c1cc(Cc2n[nH]c(=O)c3ccccc23)ccc1F)N1CCN(C(=O)C2CC2)CC1 + CN1CCN(c2cc(C(=O)Nc3cc4cc(-c5cnn(C)c5)ccc4cn3)ccn2)CC1
-- reply class 1

-- ask Please answer likewise for CC(=O)O[C@H]1C(=O)[C@@]2(C)[C@H]([C@H](OC(=O)c3ccccc3)[C@]3(O)C[C@H](OC(=O)[C@H](O)[C@@H](NC(=O)c4ccccc4)c4ccccc4)C(C)=C1C3(C)C)[C@]1(OC(C)=O)CO[C@@H]1C[C@@H]2O + CNC(=O)c1ccc(Nc2nc(OC3CCCC3)c3c(-c4ccc5nc(C)oc5c4)c[nH]c3n2)c(OC)c1
-- reply class 0

-- ask Please answer likewise for C=CC(=O)N1CCN(c2nc(=O)n(-c3c(C)ccnc3C(C)C)c3nc(-c4c(O)cccc4F)c(F)cc23)C(C)C1 (stereo not given) + CN1CCN(c2cc(C(=O)Nc3cc4cc(-c5cnn(C)c5)ccc4cn3)ccn2)CC1
-- reply class 1

-- ask Please answer likewise for C=C(F)C(=O)N1CCN(c2nc(OCC3CCCN3C)nc3c2CCN(c2cccc4cccc(Cl)c24)C3)CC1CC#N (stereo not given) + CN1CCN(c2cc(C(=O)Nc3cc4cc(-c5cnn(C)c5)ccc4cn3)ccn2)CC1
-- reply class 1

-- ask Please answer likewise for CC1(C)CCC(CN2CCN(c3ccc(C(=O)NS(=O)(=O)c4ccc(NCC5CCOCC5)c([N+](=O)[O-])c4)c(Oc4cnc5[nH]ccc5c4)c3)CC2)=C(c2ccc(Cl)cc2)C1 + CNC(=O)c1ccc(Nc2nc(OC3CCCC3)c3c(-c4ccc5nc(C)oc5c4)c[nH]c3n2)c(OC)c1
-- reply class 0
